Where these numbers come from: patent US10273267B2

- system: human proteinase 3 (Homo sapiens)
- Construct: purchased Elastin Products Company, USA
- Sequence (P24158 28-248): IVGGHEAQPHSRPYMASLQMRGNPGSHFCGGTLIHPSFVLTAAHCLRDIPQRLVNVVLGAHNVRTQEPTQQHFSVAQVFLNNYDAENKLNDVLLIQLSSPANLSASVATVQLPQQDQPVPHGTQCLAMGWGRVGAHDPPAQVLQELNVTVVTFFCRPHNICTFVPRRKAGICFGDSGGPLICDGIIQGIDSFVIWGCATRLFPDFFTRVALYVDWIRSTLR
- assay summary: Inhibition of human proteinase 3 (substrate Boc-Ala-Ala-Nva-SBzl)
- Format: biochemical
- measurement context: ratio of hPr3 IC50 to hNE IC50
Where a SMILES comes first, the peptide text is derived from it. [ ]: non-standard residue; d: D form. Gly(octyl) = CCCCCCCC[C@H](N)C(=O)O; Pip = O=C(O)[C@@H]1CCCCN1; hSer = N[C@@H](CCO)C(=O)O
Catalogue of hNE/hPr3 selectivity readings, one per entry.
Please reply with the value in numeric form only.

Use these answered entries as a reference point.
>  <compound>
CCCCCCCC[C@@H]1NC(=O)[C@@H]2CCCN2C(=O)[C@H]2CCCN2C(=O)[C@H](CCO)NC(=O)[C@H](CCCCN)NC(=O)[C@H](CCC(N)=O)NC(=O)[C@@H]2CCCN2C(=O)[C@@H]2CCCN2C(=O)[C@H]([C@@H](C)CC)NC(=O)[C@H](CO)NC(=O)[C@H](C)NC(=O)[C@H]([C@@H](C)O)NC(=O)[C@H](CCC(=O)O)NC1=O [Example 4] (cyclo([Gly(octyl)]ETASIPPQK[hSer][dP]P))

>  <hNE/hPr3 selectivity>
119

$$$$
>  <compound>
CCCCCCCC[C@@H]1NC(=O)[C@H](Cc2ccc(O)cc2)NC(=O)[C@@H](CCCCN)NC(=O)[C@H]([C@@H](C)O)NC(=O)[C@H](CCCCN)NC(=O)[C@H](CCC(N)=O)NC(=O)[C@@H]2CCCN2C(=O)[C@@H]2CCCN2C(=O)[C@H]([C@@H](C)CC)NC(=O)[C@H](CO)NC(=O)[C@H](C)NC(=O)[C@H]([C@@H](C)O)NC(=O)[C@H](CCC(=O)O)NC1=O [Example 27] (cyclo([Gly(octyl)]ETASIPPQKT[dK]Y))

>  <hNE/hPr3 selectivity>
3921

$$$$

Ask | Any idea what hNE/hPr3 selectivity was measured for CCCCCCCC[C@@H]1NC(=O)[C@@H]2CCCN2C(=O)[C@H]2CCCN2C(=O)[C@H]([C@@H](C)O)NC(=O)[C@H](CCCCN)NC(=O)[C@H](CCC(N)=O)NC(=O)[C@@H]2CCCCN2C(=O)[C@@H]2CCCN2C(=O)[C@H]([C@@H](C)CC)NC(=O)[C@H](CO)NC(=O)[C@H](C)NC(=O)[C@H]([C@@H](C)O)NC(=O)[C@H](CCC(=O)O)NC1=O [Example 45] (cyclo([Gly(octyl)]ETASIP[Pip]QKT[dP]P)) ?
Reply | 127

Ask | Please look up its hNE/hPr3 selectivity: CC[C@H](C)[C@@H]1NC(=O)[C@H](CO)NC(=O)[C@H](C)NC(=O)[C@H]([C@@H](C)O)NC(=O)[C@H](CCC(=O)O)NC(=O)[C@H](CCC(=O)N[C@@H](Cc2ccccc2)C(=O)O)NC(=O)[C@@H]2CCCN2C(=O)[C@H]2CCCN2C(=O)[C@H](Cc2ccc(O)cc2)NC(=O)[C@H](CCCCN)NC(=O)[C@H](CCC(N)=O)NC(=O)[C@@H]2CCCN2C(=O)[C@@H]2CCCN2C1=O [Example 18] (cyclo(E(Phe)ETASIPPQKY[dP]P))
Reply | 2906

Ask | So what does the record say about hNE/hPr3 selectivity for CCCCCCCC[C@@H]1NC(=O)[C@H](C(C)C)NC(=O)[C@@H](CO)NC(=O)[C@H]([C@@H](C)O)NC(=O)[C@H](CCCCN)NC(=O)[C@H](CCC(N)=O)NC(=O)[C@@H]2CCCN2C(=O)[C@@H]2CCCN2C(=O)[C@H]([C@@H](C)CC)NC(=O)[C@H](CO)NC(=O)[C@H](C)NC(=O)[C@H]([C@@H](C)O)NC(=O)[C@H](CCC(=O)O)NC1=O [Example 30] (cyclo([Gly(octyl)]ETASIPPQKT[dS]V)) ?
Reply | 1192

---

- system: UniProt P24158
- Sequence (P24158 28-248): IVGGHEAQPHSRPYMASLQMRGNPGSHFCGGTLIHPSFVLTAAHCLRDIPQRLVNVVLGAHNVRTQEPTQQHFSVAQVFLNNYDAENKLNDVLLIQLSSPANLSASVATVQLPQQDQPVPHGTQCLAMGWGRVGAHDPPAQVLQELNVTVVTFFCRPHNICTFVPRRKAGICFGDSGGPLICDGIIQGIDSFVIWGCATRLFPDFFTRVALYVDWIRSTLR
*1 amine or outer side, *2 acyl side, *3 side chain or, on linkers, in order; H or OH if unused. Where a SMILES comes first, the peptide text is derived from it. [ ]: non-standard residue; d: D form. X1 = NCCCC[C@@H](CCC(=O)[*:2])N[*:1]; Gly(octyl) = CCCCCCCC[C@H](N)C(=O)O
measured endpoint: IC50 (µM)
A number alone suffices; assume µM.

>  <molecule>
CCCCCCCC[C@@H]1NC(=O)[C@@H]2CCCN2C(=O)[C@H]2CCCN2C(=O)[C@H]([C@@H](C)O)NC(=O)CC[C@H](CCCCN)NC(=O)[C@H](CCC(N)=O)NC(=O)[C@@H]2CCCN2C(=O)[C@@H]2CCCN2C(=O)[C@H]([C@@H](C)CC)NC(=O)[C@H](CO)NC(=O)[C@H](C)NC(=O)[C@H]([C@@H](C)O)NC(=O)[C@H](CCC(=O)O)NC1=O [Example 38] (cyclo([Gly(octyl)]ETASIPPQ[X1]T[dP]P))

>  <unit name>
µM

>  <IC50>
9.2

$$$$

Ask | Fill in the blank: the reported IC50 of CCCCCCCC[C@@H]1NC(=O)[C@H](C(C)C)NC(=O)[C@@H](CO)NC(=O)[C@H]([C@@H](C)O)NC(=O)[C@H](CCCCN)NC(=O)[C@H](CCC(N)=O)NC(=O)[C@@H]2CCCN2C(=O)[C@@H]2CCCN2C(=O)[C@H]([C@@H](C)CC)NC(=O)[C@H](CO)NC(=O)[C@H](C)NC(=O)[C@H]([C@@H](C)O)NC(=O)[C@H](CCC(=O)O)NC1=O [Example 30] (cyclo([Gly(octyl)]ETASIPPQKT[dS]V)) is ____.
Reply | 14.3

---

Property: hNE/PPE selectivity; scope: individual compounds
- system: porcine pancreatic elastase (Sus scrofa, UniProt P00772)
- Construct: purchased Sigma, USA
- Sequence (P00772 27-266): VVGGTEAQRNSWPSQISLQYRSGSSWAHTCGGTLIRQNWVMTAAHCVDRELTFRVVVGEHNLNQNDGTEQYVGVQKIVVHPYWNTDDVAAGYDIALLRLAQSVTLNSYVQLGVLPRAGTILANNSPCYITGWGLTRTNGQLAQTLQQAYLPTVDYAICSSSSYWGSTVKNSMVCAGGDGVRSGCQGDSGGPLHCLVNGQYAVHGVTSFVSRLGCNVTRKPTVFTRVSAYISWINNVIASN
- assay summary: Inhibition of porcine pancreatic elastase (hydrolysis of MeOSuc-AAA-pNA)
- Assay type: biochemical
- measurement context: ratio of PPE IC50 to hNE IC50
Where a SMILES comes first, the peptide text is derived from it. [ ]: non-standard residue; d: D form. Gly(octyl) = CCCCCCCC[C@H](N)C(=O)O; AllylGly = C=CC[C@H](N)C(=O)O; Dap = NC[C@H](N)C(=O)O
Respond using a number only.

Use the examples below as a reference point.
>  <compound>
CCCCCCCC[C@@H]1NC(=O)[C@@H]2CCCN2C(=O)[C@H]2CCCN2C(=O)[C@H](Cc2ccc(O)cc2)NC(=O)[C@H](CCCCN)NC(=O)[C@H](CCC(N)=O)NC(=O)[C@@H]2CCCN2C(=O)[C@@H]2CCCN2C(=O)[C@H]([C@@H](C)CC)NC(=O)[C@H](CO)NC(=O)[C@H](C)NC(=O)[C@H]([C@@H](C)O)NC(=O)[C@H](CNC(=O)[C@@H](N)Cc2ccccc2)NC1=O [Example 14] (cyclo([Gly(octyl)][Dap](Phe)TASIPPQKY[dP]P))

>  <system>
porcine pancreatic elastase (Sus scrofa, UniProt P00772)

>  <hNE/PPE selectivity>
367

$$$$
>  <compound>
CCCCCCCC[C@@H]1NC(=O)[C@H](Cc2ccc(O)cc2)NC(=O)[C@@H](C(C)C)NC(=O)[C@H]([C@@H](C)O)NC(=O)[C@H](CCCCN)NC(=O)[C@H](CCC(N)=O)NC(=O)[C@@H]2CCCN2C(=O)[C@@H]2CCCN2C(=O)[C@H]([C@@H](C)CC)NC(=O)[C@H](CO)NC(=O)[C@H](C)NC(=O)[C@H]([C@@H](C)O)NC(=O)[C@H](CCC(=O)O)NC1=O [Example 21] (cyclo([Gly(octyl)]ETASIPPQKT[dV]Y))

>  <system>
porcine pancreatic elastase (Sus scrofa, UniProt P00772)

>  <hNE/PPE selectivity>
822

$$$$

Ask | hNE/PPE selectivity lookup needed for C=CC[C@@H]1NC(=O)[C@H]([C@@H](C)O)NC(=O)[C@H](CCC(=O)O)NC(=O)[C@H](CCC(=O)N[C@@H](Cc2ccccc2)C(=O)O)NC(=O)[C@@H]2CCCN2C(=O)[C@H]2CCCN2C(=O)[C@H](Cc2ccc(O)cc2)NC(=O)[C@H](CCCCN)NC(=O)[C@H](CCC(N)=O)NC(=O)[C@@H]2CCCN2C(=O)[C@@H]2CCCN2C(=O)[C@H]([C@@H](C)CC)NC(=O)[C@H](CO)NC1=O [Example 17] (cyclo(E(Phe)ET[AllylGly]SIPPQKY[dP]P)) , thanks.
Reply | 2080
